Where do the numbers come from? From ChEMBL document CHEMBL2040850.

Listed below: inhibition values for each entry.
Target: Prostaglandin G/H synthase 2 (Homo sapiens)
Experiment: Inhibition of human COX2 assessed as PGE2 formation at 100 uM by enzyme immunoassay
quantity_name: inhibition (%)

>>> readout_value("CS(=O)(=O)c1ccc2c(c1)c(Cc1ccc(Br)cc1)cn2C=CCC(F)(F)F (mixture of isomers)")
19
>>> readout_value("CS(=O)(=O)c1ccc2c(c1)c(Cc1ccc(Cl)cc1)cn2CC(O)CC(F)(F)F (stereo not given)")
34
>>> readout_value("CS(=O)(=O)c1ccc2c(c1)c(Cc1ccc(F)cc1)cn2CC(O)CC(F)(F)F (stereo not given)")
9
>>> readout_value("CS(=O)(=O)c1ccc2[nH]cc(Cc3ccc(Cl)cc3)c2c1")
24
>>> readout_value("CS(=O)(=O)c1ccc2c(c1)c(Cc1ccc(F)cc1)cn2C=CCC(F)(F)F (mixture of isomers)")
18

====

Target: Prostaglandin G/H synthase 1 (Ovis aries) (UniProt P05979)
Sequence (P05979 whole entry, looked up): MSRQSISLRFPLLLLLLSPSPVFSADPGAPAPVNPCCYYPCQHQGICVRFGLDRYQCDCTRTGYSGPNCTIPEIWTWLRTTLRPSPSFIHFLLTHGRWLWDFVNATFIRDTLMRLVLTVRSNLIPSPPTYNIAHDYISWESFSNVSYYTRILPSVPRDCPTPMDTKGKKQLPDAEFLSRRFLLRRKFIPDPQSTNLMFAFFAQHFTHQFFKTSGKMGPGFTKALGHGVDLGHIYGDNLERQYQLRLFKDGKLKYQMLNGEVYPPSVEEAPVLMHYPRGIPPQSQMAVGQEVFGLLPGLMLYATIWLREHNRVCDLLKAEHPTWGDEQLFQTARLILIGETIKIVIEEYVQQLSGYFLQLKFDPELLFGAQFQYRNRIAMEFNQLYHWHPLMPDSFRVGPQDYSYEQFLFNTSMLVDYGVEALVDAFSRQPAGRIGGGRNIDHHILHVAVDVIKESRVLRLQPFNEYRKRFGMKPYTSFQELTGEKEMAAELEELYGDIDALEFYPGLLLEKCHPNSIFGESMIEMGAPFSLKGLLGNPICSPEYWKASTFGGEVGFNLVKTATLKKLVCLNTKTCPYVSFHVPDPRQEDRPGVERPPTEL
Assay: Inhibition of ovine COX1 assessed as PGE2 formation at 50 uM by enzyme immunoassay
Classify by measured inhibition: y if it is equal to or exceeds 20%, n if it is smaller.

>>> label("CS(=O)(=O)c1ccc2[nH]c(Cc3ccc(Cl)cc3)c(Cc3ccc(Cl)cc3)c2c1")
"y"
>>> label("CS(=O)(=O)c1ccc2c(c1)c(Cc1ccc(Cl)cc1)cn2C=CCC(F)(F)F (mixture of isomers)")
"n"
>>> label("NS(=O)(=O)c1ccc2[nH]c(Cc3ccc(F)cc3)c(Cc3ccc(F)cc3)c2c1")
"n"
>>> label("NS(=O)(=O)c1ccc2[nH]c(Cc3ccc(Cl)cc3)c(Cc3ccc(Cl)cc3)c2c1")
"y"
>>> label("NS(=O)(=O)c1ccc2[nH]cc(Cc3ccc(F)cc3)c2c1")
"y"
>>> label("NS(=O)(=O)c1ccc(Cc2c[nH]c3ccc(Br)cc23)cc1")
"n"
>>> label("NS(=O)(=O)c1ccc2[nH]c(Cc3ccc(Br)cc3)c(Cc3ccc(Br)cc3)c2c1")
"y"
>>> label("CS(=O)(=O)c1ccc2c(c1)c(Cc1ccc(F)cc1)cn2C=CCC(F)(F)F (mixture of isomers)")
"n"
>>> label("CS(=O)(=O)c1ccc2c(c1)c(Cc1ccc(Br)cc1)cn2CC(O)CC(F)(F)F (centres undefined)")
"n"
>>> label("NS(=O)(=O)c1ccc2[nH]cc(Cc3ccc(Cl)cc3)c2c1")
"y"
>>> label("CS(=O)(=O)c1ccc2c(c1)c(Cc1ccc(F)cc1)cn2CC(O)CC(F)(F)F (centres undefined)")
"n"
>>> label("CS(=O)(=O)c1ccc2c(c1)c(Cc1ccc(Cl)cc1)cn2CC(O)CC(F)(F)F (centres undefined)")
"n"
>>> label("NS(=O)(=O)c1ccc2[nH]cc(Cc3ccc(Br)cc3)c2c1")
"n"
